Experiment: refractive index (Na D-line) (dimensionless)
Details: 293.1 K; 101.33 kPa; Liquid; Standard Abbe refractometry
Numbers after ± are expanded uncertainties.
Metric: refractive index

[[record]]
compound = "CN(C)C=O [dimethylformamide]"
result_value = "1.429 ± 0.02"


In: Item CCCCCO [pentan-1-ol] has what recorded refractive index?
Out: 1.409 ± 0.02

In: Now the compound CCCCCCCO [heptan-1-ol]
Out: 1.424 ± 0.02

In: Now the compound CCCCCCO [hexan-1-ol]
Out: 1.418 ± 0.001

###

Settings: 298.15 K; 101.33 kPa; Liquid; Concentric cylinders viscometry
Metric: viscosity (mPa·s)
Only the number, expressed in mPa·s, is required.

// worked examples, viscosity included
[[record]]
molecule = "CCCCCO"
metric = "viscosity"
result_value = 3.5

[[record]]
molecule = "CN(C)C=O [dimethylformamide]"
metric = "viscosity"
result_value = 0.8162

[[record]]
molecule = "CCCCCCCO"
metric = "viscosity"
result_value = 5.944


Next:
In: Item CCCCCCO has what recorded viscosity?
Out: 4.593

The reported numbers originate from the NIST ThermoML archive (doi:10.1016/j.jct.2012.06.023).
